Where do these numbers come from? They come from patent US20260174860A1.

Tested on: MRC-5 human lung fibroblast cell line
Experiment: MTT test of cell viability, 72 h treatment
Format: cell-based
Conditions: Homo sapiens, MRC5, 72 h, 2,000 cells per well (non-small cell carcinoma experiments)
IC50 by entry:
Report as a plain number; the unit µM is understood.

Examples with answers:
1) C=C[C@](C)(O)CC[C@@H]1[C@@]2(C)CCCC(C)(C)[C@@H]2CC[C@@]1(C)O [SC, sclareol] :: 64.1
2) CC1(C)CCC[C@]2(C)[C@@H](CC[C@@](C)(O)/C=C/c3ccc(CNCCCNC(=O)CCC(=O)O)cc3)[C@](C)(O)CC[C@@H]12 [LIG1] :: 393

Kindly review the next compound as well.
Q: What measured IC50 goes with CC1(C)CCC[C@]2(C)[C@@H](CC[C@@](C)(O)/C=C/c3ccc(CNCCCCCCNC(=O)CCC(=O)O)cc3)[C@](C)(O)CC[C@@H]12 [LIG2] ?
A: 610
